# Experimental Target: EGFR (HCC827 cells) (Homo sapiens, UniProt P00533, DEL746-750)
# Construct: endogenous in cells; host or cells: HCC827
# Sequence (P00533 with tags, fused parts or gaps DEL746-750): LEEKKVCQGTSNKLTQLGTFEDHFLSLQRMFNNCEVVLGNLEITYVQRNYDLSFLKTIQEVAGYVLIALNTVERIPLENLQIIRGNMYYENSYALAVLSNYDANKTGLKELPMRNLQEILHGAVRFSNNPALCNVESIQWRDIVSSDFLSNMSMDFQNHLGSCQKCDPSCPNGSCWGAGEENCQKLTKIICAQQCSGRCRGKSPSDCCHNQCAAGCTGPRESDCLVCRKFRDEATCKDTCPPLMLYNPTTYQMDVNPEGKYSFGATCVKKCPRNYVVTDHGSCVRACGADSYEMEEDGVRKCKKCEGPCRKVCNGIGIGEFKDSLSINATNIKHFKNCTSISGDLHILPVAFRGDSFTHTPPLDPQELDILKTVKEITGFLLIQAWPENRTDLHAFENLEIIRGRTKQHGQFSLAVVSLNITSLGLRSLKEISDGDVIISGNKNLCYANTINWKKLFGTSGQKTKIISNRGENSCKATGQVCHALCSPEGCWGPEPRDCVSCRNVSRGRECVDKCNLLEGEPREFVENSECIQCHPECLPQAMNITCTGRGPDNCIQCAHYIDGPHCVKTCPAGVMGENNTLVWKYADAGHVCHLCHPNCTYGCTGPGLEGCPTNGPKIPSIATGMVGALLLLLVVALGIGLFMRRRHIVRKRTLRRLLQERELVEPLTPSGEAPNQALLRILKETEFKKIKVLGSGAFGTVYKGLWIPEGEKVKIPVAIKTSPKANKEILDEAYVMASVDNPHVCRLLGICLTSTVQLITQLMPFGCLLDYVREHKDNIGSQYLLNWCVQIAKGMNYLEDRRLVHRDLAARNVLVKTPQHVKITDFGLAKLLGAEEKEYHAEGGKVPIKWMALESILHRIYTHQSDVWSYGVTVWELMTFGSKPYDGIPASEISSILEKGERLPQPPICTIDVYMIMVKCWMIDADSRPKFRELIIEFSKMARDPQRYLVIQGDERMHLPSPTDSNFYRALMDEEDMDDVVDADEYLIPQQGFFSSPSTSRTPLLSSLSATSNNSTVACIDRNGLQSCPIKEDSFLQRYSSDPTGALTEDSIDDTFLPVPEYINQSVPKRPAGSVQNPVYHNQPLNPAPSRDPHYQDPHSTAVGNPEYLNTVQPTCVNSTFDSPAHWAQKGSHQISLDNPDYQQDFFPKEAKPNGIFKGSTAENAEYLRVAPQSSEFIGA
# Assay Details: EGFR degradation HTRF assay, HCC827 cells
# Type: cell-based
# Reported Conditions: HCC827, 16h treatment
Labelling: DC50 reported below 5 nM becomes true (1); at or above becomes false (0).

In: hey, is DC50 for COc1cc(N2CCN(CC3CCN(c4ccc(C5CCC(=O)NC5=O)cc4)CC3)CC2)ccc1Nc1ncc(Br)c(Nc2ccc3nccnc3c2P(C)(C)=O)n1 (stereo not drawn) lower than 5 nM or not?
Out: false (0)

In: hey, is DC50 for CCc1cc(Nc2ncc(Br)c(Nc3ccc4nccnc4c3P(C)(C)=O)n2)c(OC)cc1N1CCC(N2CCN(CC3CN(c4ccc5c(c4)C(=O)N(C4CCC(=O)NC4=O)C5=O)C3)CC2)CC1 (stereo not drawn) lower than 5 nM or not?
Out: true (1)

In: hey, is DC50 for COc1cc(N2CCC(N3CCN(C(=O)C4CCN(CC5CCN(c6ccc7c(c6)C(=O)N(C6CCC(=O)NC6=O)C7=O)CC5)CC4)CC3)CC2)ccc1Nc1ncc(Cl)c(Nc2ccccc2P(C)(C)=O)n1 (stereo not drawn) lower than 5 nM or not?
Out: true (1)

From: patent US20230265116A1
